- assay.target: Albumin (Homo sapiens)
- Sequence (P02768 whole entry): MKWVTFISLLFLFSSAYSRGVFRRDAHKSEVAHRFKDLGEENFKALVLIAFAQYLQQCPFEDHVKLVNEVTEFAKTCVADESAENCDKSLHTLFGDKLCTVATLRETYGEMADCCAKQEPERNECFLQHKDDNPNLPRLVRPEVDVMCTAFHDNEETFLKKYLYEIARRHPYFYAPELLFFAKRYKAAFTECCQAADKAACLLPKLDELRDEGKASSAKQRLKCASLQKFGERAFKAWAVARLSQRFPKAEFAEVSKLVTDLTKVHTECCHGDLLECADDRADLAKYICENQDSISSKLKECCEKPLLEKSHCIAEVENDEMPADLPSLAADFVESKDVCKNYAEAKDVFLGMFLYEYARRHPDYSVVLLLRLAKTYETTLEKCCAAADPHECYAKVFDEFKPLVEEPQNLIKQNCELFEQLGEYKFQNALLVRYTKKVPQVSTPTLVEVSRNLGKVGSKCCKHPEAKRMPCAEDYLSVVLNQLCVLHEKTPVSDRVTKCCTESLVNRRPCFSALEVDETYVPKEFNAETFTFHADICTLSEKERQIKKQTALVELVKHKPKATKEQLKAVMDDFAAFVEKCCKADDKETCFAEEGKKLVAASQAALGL
- test.method.notes: Binding affinity to human serum albumin by fluorescence quenching assay
- Assay type: ADME
- settings: isolated protein
Consider the following compounds; for each one, report its Ka.
Give your result in ×10⁵ L/mol as a bare value.

Request - read-out Ka | tested on Albumin (Homo sapiens) | compound `Cc1cc2c(C(C)C)c(O)c(O)c(C=O)c2c(O)c1-c1c(C)cc2c(C(C)C)c(O)c(O)c(C=O)c2c1O`
2.3906

Query the reported Ka for Albumin (Homo sapiens); item: `Cc1cc2c(c(O)c1-c1c(C)cc3c(c1O)/C(=C/NC(C)(C)C(=O)[O-])C(=O)C(O)=C3C(C)C)/C(=C/NC(C)(C)C(=O)[O-])C(=O)C(O)=C2C(C)C.[Na+].[Na+]`
1.9125

* * *

- assay.target: Albumin (Homo sapiens)
- test.method.notes: Binding affinity to human serum albumin by fluorescence quenching assay
- Format: ADME
- settings: isolated protein
quantity.measured: Ka (×10⁵ L/mol)
# number only, unit ×10⁵ L/mol dropped from output

# Ka lookup, item `Cc1cc2c(c(O)c1-c1c(C)cc3c(c1O)/C(=C/N[C@H](C(=O)[O-])C(C)C)C(=O)C(O)=C3C(C)C)/C(=C/N[C@H](C(=O)[O-])C(C)C)C(=O)C(O)=C2C(C)C.[Na+].[Na+]`
2.114

Recorded Ka for `Cc1cc2c(c(O)c1-c1c(C)cc3c(c1O)/C(=C/N[C@@H](C)C(=O)[O-])C(=O)C(O)=C3C(C)C)/C(=C/N[C@@H](C)C(=O)[O-])C(=O)C(O)=C2C(C)C.[Na+].[Na+]` , please?
1.0392

Endpoint output: Ka of `Cc1cc2c(C(C)C)c(O)c(O)c(/C=N/[C@@H](Cc3ccccc3)C(=O)[O-])c2c(O)c1-c1c(C)cc2c(C(C)C)c(O)c(O)c(/C=N/[C@@H](Cc3ccccc3)C(=O)[O-])c2c1O.[Na+].[Na+]` . Value?
1.2835
